Origin of values: the supplement of paper PMC9170038

- System: MS2 coat protein
- Protocol text: apparent KD of MS2 coat protein; designed switch direction (-1 OFF switch, 1 ON switch): -1; higher = weaker reporter binding
- Conditions: Eterna round: R95; input ligand: none
Measure: apparent KD of MS2 coat protein (nM)
Give bare numbers, in nM.

Please review the entries below; each comes with its answer.
Sequence input | Study target | Unit spec | apparent KD of MS2 coat protein
CUAGAUCUUCGGAUCUAGUACAUGAGGAUCACCCAUGUUACGAGUUGAUCCUCAUACAAGCUUUUUGCUCGUCUUAU [Sensor v3 - Turn-off variant 1 - 25] (puzzle: Sensor v3, turn-off variant 1) | MS2 coat protein | nM | 13.9
GGGUGUCCAGUGAGGAUAUCCAACGCUAAGGCGCAGGAGAAGGCACAUGAGGAUCACCCAUGUAGCUGAAGAAA [Onerbegeso] (puzzle: Brourd's mod of Exclusion 4) | MS2 coat protein | nM | 20

Field: next sequence
Request: I have this sequence here, UCUGGUCGGAAGGAUAUGGUCGGGUCAAAUCGGCCAGAAGGUCUGACAUGAGGAUCACCCAUGUGAGUCCAAAG [Esceus] (puzzle: Exclusion 6) , and I need its recorded apparent KD of MS2 coat protein.
Result: 20.8

---

- Test system: K4 kissing-loop RNA reporter
- Protocol text: apparent KD of K4 kissing-loop reporter; higher = weaker reporter binding
- Conditions: Eterna round: R107; input ligand: tryptophan 2.4 mM
Label rule, in plain words: apparent KD of K4 kissing-loop reporter of 600 nM and up is satisfied, under 600 nM is not satisfied.

Observe how each entry below is paired with its result.
Sequence input | Label class
CAGGCCGAGUGAUGUUCGGUCUGAGUGAUAAAGGAUAUAAGGGAUUUUAGAAGGUUAUCUAAACAGACCAAACAUCUAUCCACUC [theeternabot_exclusion_KL_FMN_A_16] | not satisfied
GGGCCUGGGCCCGGAAGGGCCUGGGCCCGUUAGGAUAUGACGUGAUUCAGAAGGGAUGGGUGGAGUGAUGUUCCACCCGAGAGGG [#2 Same State - FMN A Attempt #25 (HarryS)] | not satisfied
UUUUAGGUAUCUGAUACCAGAGAAAAUAUAUGUAGUGAUGUUAUAUACAAAAUAAUUAAGCUCCCUUGGCAGCAGUAUUAAUUUU [AstrosExc-TheB#3] | satisfied

Request: Is it the case that AUCCGAGAAUAUGAUACCAGCUGAGUGUAUCAAGACCGUAUCUCCCGUGCUAGUGAUGUUAGCCCUUGGCAGCAUAUGAAAGCGG [theeternabot_exclusion_KL_Theo_B_15] has apparent KD of K4 kissing-loop reporter reaching or exceeding 600 nM?
Result: not satisfied

---

- System: MS2 coat protein
- Protocol text: apparent KD of MS2 coat protein; designed switch direction (-1 OFF switch, 1 ON switch): -1; higher = weaker reporter binding
- Conditions: input ligand: FMN 200 uM
Would you mind telling me the reported apparent KD of MS2 coat protein of each entry?
A bare number is not enough; add the unit after it.

Sequence input | Result
ACAUGUGUUGUAGGAUAUAGGAUACAUGAGGAUCACCCAUGUGGAUUCAUGUCAAUGGAAACGUCCUAGAAGGACGACAACAUG [Ex NG2 #22] (Eterna round: R96, puzzle: Exclusion NG 2) | 59.5 nM

Okay, here is my list. What is apparent KD of MS2 coat protein for each of these?
1. GUAGAGUCAGGAUAUACGAGAUCGAAAGAUCGGCGAUCCCUACAUGAGGAUCACCCAUGUAGAAGGGACUCUAC [Eli x2 4.12] (Eterna round: R97, puzzle: Exclusion 2)
2. CUACUAGAGACGCGUGGGAACAUGAGGAUCACCCAUGUCAAUGGAGUUUAAACAGGCCCGUCGUUUUGCUCGUCGUG [Eternabot (L2) Solution 41] (Eterna round: R97, puzzle: Sensor, turn-off variant 1)

Result:
1: 28.7 nM; 2: 113 nM

---

- System: K4 kissing-loop RNA reporter;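 further: bound reporter read as fluorescence of individual clusters on recovered sequencing chips by microscopy, with normalized cluster intensities fitted with a binding model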
- Protocol text: apparent KD of K4 kissing-loop reporter; higher = weaker reporter binding
- Conditions: Eterna round: R107; input ligand: theophylline 20 uM
Class membership depends on apparent KD of K4 kissing-loop reporter alone; the intervals are range 1 = under 0.2 µM, range 2 = from 0.2 µM up to 0.5 µM, range 3 = 0.5 µM and over

Sequence input | Study target | Label class
GGCAGUGAUGUUGCCUAAGCAACGCAUGCAGAGGAUAUUCGUUCGGGAAGAAGGCUGCAGCGUUCUCUCGCGAGUGAUGUUCGCG [Same State FMN A GF 23] | K4 kissing-loop RNA reporter | range 1
AGACUACCACACUGUCAAUAGACAGUGAAUUAGGAUAUGCUGAUAAGCAGAAGGAGUGAUGUUCCGAGGUAGUCAAUAAAAUAAU [FmnAX 13 U30+G66] | K4 kissing-loop RNA reporter | range 2
AGUGAUGUAUGGCGGUUUGUCACUUAUUAUCAGGAUAUAUAAACAAAUAGAAGGGAUGGCGGAGUGAUGUUCCGCCGGCCGCCAU [FMN A Exl V5] | K4 kissing-loop RNA reporter | range 1
UAGUAGUAGCGAGGAUAUGCAAUAGGCGAGUGAUGUUCGCCAGGCGGGCGUCGCAUAUAAGAAAGAGCAGAAGGCGCUAGGUAGA [SameState - FMN B / A] | K4 kissing-loop RNA reporter | range 2
CUUGUACAUGCCGAGGUAGGUGCGGGUUAGCGAGGACCGGUACGGCCGCCACUCGCCAAGUGAUGUUUGGUCCUUUGGGUCGGCA | K4 kissing-loop RNA reporter | range 3
UUUUUGGAGAAUUAUAGUGAUGUUAUGAAGGAGGAUAUCUGGAGAUGGAGAAGGCCUAGUGGCUCAGCCAUGGAGGGUGGGUGGG [ExFMNA.aA] | K4 kissing-loop RNA reporter | range 3
UUAUAUUUCAGUGAUGUUGAAAAUAUAACAGAGGAUAUGCGUUUAAGCAGAAGGCUGAAAUACUAUACUUUAAUCUAUUAAAUUU [JR_Nu_SSFMNA_Sub027] | K4 kissing-loop RNA reporter | range 2
AAAGGAGUGGAAGGAUAUCCUGGUGUGGGUGGUGUUAGUGAUGUUGGUGGUGCAGUGAUGUUGCGCGGAGAAGGUCCGGUAUUGG [BDazzled - #2 - Exc. FMN B] | K4 kissing-loop RNA reporter | range 3
UUUAUAUAGUCGGCCGCCACUGAUUUUUAUAUAUGUUUAUGUUUAUACGAGUGAUGUUCGUUAUUCAGGACCGGGACUUUUGUUA [JR_SSTryptoB_Sub016] | K4 kissing-loop RNA reporter | range 1
GCAAUUCUCAGUGAUGUUGAGUAAUCGGAAGGAGCGCGUGAAAACGCAGGUAGGUCGCCGAAACAUGAAGUAUCUUCGUGUUUGC [Arginine A K4 24] | K4 kissing-loop RNA reporter | range 2

Below: the item to evaluate.
Request: For this sequence, which bin applies? UGAUACCAGACGGCCGCCACUGGGACCGGGAGUGAUGUUCCAAAUAAAAGAAACUCGGCCGCCACUAGGACCGGGUCUGGUAUCU [TrypBX 30 #DoubleAptamer #SwitchBubble]
Result: range 2

---

Would you mind telling me the reported apparent KD of MS2 coat protein of each entry?
- System: MS2 coat protein
- Protocol text: apparent KD of MS2 coat protein; designed switch direction (-1 OFF switch, 1 ON switch): 1; higher = weaker reporter binding
- Conditions: Eterna round: R95; input ligand: microRNA oligo, concentration not stated
Numbers only, in nM.

Please review the entries below; each comes with its answer.
Sequence input | apparent KD of MS2 coat protein, nM
GGUCCAGCCUGAGCUGGACAAAAGCAUGUACAUGAGGAUCACCCAUGUUCAUGUACAAGCUUUUUGCUCGUCUUAGC [salish99_208a_r3_071] (puzzle: Sensor for hsa-mir-208a) | 12.7
UAGAAACAUGAGGAUCACCCAUGUGGGUUAAACACAGGAUAUCACGCCAAAAGAAAAGCGUGAGAAGGGUGACCGA [Xeusisus] (puzzle: Same State 1) | 71.2
GUUAUACAUGAGGAUCACCCAUGUCAAUGUAGUCGAGGAUAUGGGCAGCUAUGAGGCGUACUAGAAGGCGAGAAGU [Mat - Same State 1 - Mod of JL - D15] (puzzle: Same State 1) | 268
GUAAAACAUGAGGAUCACCCAUGUAAUAAUAUGGGAGGAUAUCAGAUUUAAUUUAAUUUAUGAGAAGGCCUAAAUU [Mat - Same State 1 - Mod of Eli - D62] (puzzle: Same State 1) | 488

Request: I have this sequence here, AGAGUGUAUCCACAGGAUAUGCGAGCUGACACAUGAGGAUCACCCAUGUAGUCCUAAAGGGCCAAGCAGAAGGGUGGUAAAGCUC [Oneson] (puzzle: Same State 2) , and I need its recorded apparent KD of MS2 coat protein.
Result: 28.9

---

Would you mind telling me the reported apparent KD of MS2 coat protein of each entry?
- System: MS2 coat protein
- Protocol text: apparent KD of MS2 coat protein; designed switch direction (-1 OFF switch, 1 ON switch): -1; higher = weaker reporter binding
- Conditions: Eterna round: R95; input ligand: none
A bare number is not enough; add the unit after it.

Sequence input | apparent KD of MS2 coat protein
AGUACUAACACGAAAGUGUUAGUACAAUAAGCUUGUGGAACAUGAGGAUCACCCAUGUCCUCAUAAGCUCGUCUUAG [Mat - Sensor v3 - Turn-off var 2 - D26] (puzzle: Sensor v3, turn-off variant 2) | 13 nM
GACCCAAGUGUUAGGAUAUCCAGUCGUGGGACCAGGGAGAAGGAACAUGAGGAUCACCCAUGUAAAAUAGAAAC [Anti] (puzzle: Brourd's mod of Exclusion 4) | 22.3 nM
AGUAGAUCUACGCUUGCGUGGAUCUGCAAUGCAAGUGUUACAUGAGGAUCACCCAUGUCCUCAUUUGCUCGUCUUAG [JL turnoff v2 99.05] (puzzle: Sensor v3, turn-off variant 2) | 45.4 nM
AAGAAACAUGAGGAUCACCCAUGUGAGGAUAUGAUAAAGAAAAGAAAAGAAAGAAGAAUCAGAAGGCACAAAGG [salish99-ex1_r3_031] (puzzle: Exclusion 1) | 54 nM

Okay, here is my list. What is apparent KD of MS2 coat protein for each of these?
1. AACCGGCGGACCGAAGCUUUUUGCUUGUUUUAUACUACUACAUGAGGAUCACCCAUGUCGUGGUGGUCUGUUGUAGA [Bibe] (puzzle: Sensor v3, turn-off variant 2)
2. CCCAUGUCAGGAUAUCUAAGAGAGGAUCAGCCCUCUCCUCCGGAGAAGGGACAUGAGGAUCACCCAUGUAAAAC [Zasorequ] (puzzle: Exclusion 4)
3. AAAUACAAGUAAAGAUCCUACAUGAGGAUCACCCAUGUGCUCGUCUUGUAAAGUACUAUCACGAAAGUGAUAGUACU [Mat - Sensor v3 - turn-off var 1 - Eli Mod - D87] (puzzle: Sensor v3, turn-off variant 1)
4. CUUAGACAUGAGGAUCACCCAUGUGAGGAUAUGAUACAAUCAUACUAACAUAAUCACAUCAGAAGGCACAUAUG [Mat - Mod of JL D68] (puzzle: Exclusion 1)
5. AAUAAUCGAGGAUAUACUAAAAUAUGAAUAAAAUAAAUAAAACAUGAGGAUCACCCAUGUAGAAGGCGAAAUAA [JMF's Not so obvious solution 1] (puzzle: Exclusion 2)

Result:
33.2 nM
204 nM
47.7 nM
52.4 nM
29.5 nM
